Reference source for all entries: PubChem BioAssay (NCATS)

Tested on: CP297
METHOD DESCRIPTION: qHTS profiling for inhibitors of Plasmodium falciparum proliferation (AID 504749); note: nearly all actives have a fitted effect of over 60% in size
REPORTED CONDITIONS: P. falciparum in erythrocytes, SYBR Green DNA, 72 h; series mostly up to 28.7 µM
Records with an inconclusive call do not appear. Calls of active or inactive are those of the source. Calls come from the whole dose curve; as a rule, active = well fitted inhibition curve with a large enough effect; inconclusive = small, poorly fitted or top-dose-only effect; inactive = flat fitted curve, though single readings scatter.
Bench note: report the call from active, inactive

Consider the following illustrative entries.
O=C(O)c1cc(=O)[nH]c(=O)[nH]1 : inactive
Nc1ccc(S(=O)(=O)Nc2ccccn2)cc1 : inactive
COc1ccc2cc3[n+](cc2c1OC)CCc1cc2c(cc1-3)OCO2 : active

Query: Outcome? CNNCc1ccc(C(=O)NC(C)C)cc1
Reply: inactive

Query: Outcome? O=P(O)(O)C(O)(Cc1cccnc1)P(=O)(O)O
Reply: inactive

----------
METHOD DESCRIPTION: qHTS Screen of the MIPE 4.0 Collection Against Ewings Sarcoma (TC71) (AID 1259253); note: nearly all actives have a fitted effect of over 40% in size
REPORTED CONDITIONS: TC71 Ewing sarcoma viability, CellTiter-Glo, 48 h; series mostly up to 45.8 µM
Protocol: There is a large unmet medical need for treatments for Ewing sarcoma, a pediatric sarcoma. […] Using the NCATS developed oncology compound library called the Mechanism of Interrogation Plate (MIPE), four Ewing sarcoma cell lines were evaluated (TC32, TC71, RDES, EW8). Compounds, in a 12-point titration series, were incubated with cells for 48 hours and the read out was cell viability (CellTiter-Glo from Promega). […]
Inconclusive results are not listed. The source made the active and inactive calls. Calls follow the shape of the dose curve; as a rule, active = well fitted inhibition curve with a large enough effect; inconclusive = small, poorly fitted or top-dose-only effect; inactive = no such curve, though single readings can be large or run the other way.
Bench note: report the call from true (1) for active, false (0) for inactive

Consider the following illustrative entries.
NC1(c2ccc(-c3nc4ccn5c(=O)[nH]nc5c4cc3-c3ccccc3)cc2)CCC1 : true (1)
COc1cc2c(Nc3ccc(Br)cc3F)ncnc2cc1OCC1CCN(C)CC1 : true (1)
CCC(=O)O[C@]1(C(=O)SCF)[C@H](C)C[C@H]2[C@@H]3C[C@H](F)C4=CC(=O)C=C[C@]4(C)[C@@]3(F)[C@@H](O)C[C@@]21C : false (0)
CCCCc1oc2ccc(NS(C)(=O)=O)cc2c1C(=O)c1ccc(OCCCN(CCCC)CCCC)cc1 : true (1)
O=C(O)c1cc(=O)[nH]c(=O)[nH]1 : false (0)
COc1cc2nc(N3CCCN(C)CC3)nc(NC3CCN(Cc4ccccc4)CC3)c2cc1OC : true (1)
S=P(N1CC1)(N1CC1)N1CC1 : true (1)
CCN(C)C(=O)Oc1cccc([C@H](C)N(C)C)c1 : false (0)

Query: Outcome? CCCN[C@H]1CCc2nc(N)sc2C1
Reply: false (0)

Query: Outcome? NC(=O)c1cccc(N)c1
Reply: false (0)

Query: Outcome? COC(=O)Nc1nc2ccc(S(=O)c3ccccc3)cc2[nH]1 (stereo unspecified)
Reply: true (1)

----------
METHOD DESCRIPTION: Quantitative High-Throughput drug screen in 47 multiple myeloma cell lines against the NCATS MIPE library collection: FR4_PLB cell viability assay (AID 1918924; note: nearly all actives have a fitted effect of over 35% in size)
REPORTED CONDITIONS: FR4_PLB myeloma cells viability, CellTiter-Glo ATP, 48 h; series mostly up to 45.8 µM
Inconclusive results are not listed. Calls of active or inactive are those of the source. The call rests on the fitted dose curve; in most records, active means well fitted cell-killing curve with a large enough effect; inconclusive means small, poorly fitted or top-dose-only effect, or effect the other way; inactive means no such curve, though single readings can be large or run the other way.
Bench note: report the call from YES (active), NO (inactive)

CC(=O)[C@H]1CC[C@H]2[C@@H]3CC=C4C[C@@H](O)CC[C@]4(C)[C@H]3CC[C@]12C : NO

Query: Outcome? CCCc1cc(C(N)=S)ccn1
Reply: NO

Query: Outcome? CN1CCN(c2c(F)cc3c(=O)c(C(=O)O)cn4c3c2OCN4C)CC1
Reply: NO

Query: Outcome? CC(C)(Sc1cc(C(C)(C)C)c(O)c(C(C)(C)C)c1)Sc1cc(C(C)(C)C)c(O)c(C(C)(C)C)c1
Reply: NO

Query: Outcome? COC(c1ccccc1)(c1ccccc1)[C@H](Oc1nc(C)cc(C)n1)C(=O)O
Reply: NO

Query: Outcome? CCCOc1ccc(C(=O)OCCN(CC)CC)cc1N
Reply: NO

Query: Outcome? CNS(=O)(=O)Cc1ccc2[nH]cc(CCN(C)C)c2c1
Reply: NO

Query: Outcome? CS(=O)(=O)c1ccc([C@@H](O)[C@@H](CO)NC(=O)C(Cl)Cl)cc1
Reply: NO

Query: Outcome? CCN1CCCC1CNC(=O)c1cc(S(N)(=O)=O)ccc1OC (stereo not drawn)
Reply: NO

Query: Outcome? CO[C@@]12[C@H](COC(N)=O)C3=C(C(=O)C(C)=C(N)C3=O)N1C[C@@H]1N[C@@H]12
Reply: YES

Query: Outcome? COC(=O)Nc1nc2ccc(C(=O)c3ccccc3)cc2[nH]1
Reply: YES

Query: Outcome? CCN(CC)CCn1c(=O)c(Cc2ccc(OC)cc2)nc2ccccc21
Reply: NO

Query: Outcome? C[C@@H](CN1CC(=O)NC(=O)C1)N1CC(=O)NC(=O)C1
Reply: NO

Query: Outcome? CC1=NN(c2ccccc2)C(=O)C1
Reply: NO

Query: Outcome? CC(C)NCC(O)c1ccc(NS(C)(=O)=O)cc1 (stereo not drawn)
Reply: NO

Query: Outcome? NS(=O)(=O)c1cc2c(cc1Cl)NC(C(Cl)Cl)NS2(=O)=O (stereo not drawn)
Reply: NO

Query: Outcome? NC(=O)c1cccc(N)c1
Reply: NO

Query: Outcome? O=C(O)c1cn(C2CC2)c2cc(N3CCNCC3)c(F)cc2c1=O
Reply: NO

Query: Outcome? CNC1CCCN(c2c(F)cc3c(=O)c(C(=O)O)cn(C4CC4)c3c2OC)C1 (stereo not drawn)
Reply: NO

Query: Outcome? CC(C)(C)C(=O)OCOP(=O)(COCCn1cnc2c(N)ncnc21)OCOC(=O)C(C)(C)C
Reply: YES

Query: Outcome? N[C@@H](Cc1ccc(O)c(O)c1)C(=O)O
Reply: NO

Query: Outcome? N=C(N)c1ccc(OCCCCCOc2ccc(C(=N)N)cc2)cc1
Reply: YES

Query: Outcome? CC[C@H](NC(C)C)[C@H](O)c1ccc(O)c2[nH]c(=O)ccc12
Reply: NO

----------
Test system: CP247
METHOD DESCRIPTION: qHTS profiling for inhibitors of Plasmodium falciparum proliferation (AID 504749); note: nearly all actives have a fitted effect of over 60% in size
REPORTED CONDITIONS: P. falciparum in erythrocytes, SYBR Green DNA, 72 h; series mostly up to 28.7 µM
Records with an inconclusive call do not appear. The source made the active and inactive calls. Calls come from the whole dose curve; as a rule, active = well fitted inhibition curve with a large enough effect; inconclusive = small, poorly fitted or top-dose-only effect; inactive = flat fitted curve, though single readings scatter.
Bench note: report the call from 1.0 (active), 0.0 (inactive)

Consider the following illustrative entries.
COC(=O)Nc1nc2ccc(Sc3ccccc3)cc2[nH]1 : 0.0
C#CCN[C@@H]1CCc2ccccc21 : 0.0
Cc1nnc(NS(=O)(=O)c2ccc(N)cc2)s1 : 0.0

Query: Outcome? CN(Cc1cc(Br)cc(Br)c1N)C1CCCCC1
Reply: 0.0

Query: Outcome? CCCCOc1ccc(CC(=O)NO)cc1
Reply: 1.0

Query: Outcome? COc1cnc(NS(=O)(=O)c2ccc(N)cc2)nc1
Reply: 0.0

----------
METHOD DESCRIPTION: qHTS of pediatric cancer cell lines to identify multiple opportunities for drug repurposing: Confirmatory screen for TC32 cells (AID 1347118);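 note: cells exposed to compound for 48 h before the read; nearly all actives have a fitted effect of over 65% in size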
REPORTED CONDITIONS: TC32 Ewing sarcoma cells viability qHTS; series mostly up to 45.9 µM
Records with an inconclusive call do not appear. Calls of active or inactive are those of the source. Calls come from the whole dose curve; as a rule, active = well fitted cell-killing curve with a large enough effect; inconclusive = small, poorly fitted or top-dose-only effect; inactive = no such curve, though single readings can be large or run the other way.
Bench note: report the call from class 1 = active, class 0 = inactive

Consider the following illustrative entries.
CNC(=O)c1cc(Oc2ccc(NC(=O)Nc3ccc(Cl)c(C(F)(F)F)c3)cc2)ccn1 : class 1
NC(=O)c1cccnc1 : class 1
COC(=O)Nc1nc2ccc(C(=O)c3ccccc3)cc2[nH]1 : class 1
CC(C)(C)C(=O)OCOP(=O)(COCCn1cnc2c(N)ncnc21)OCOC(=O)C(C)(C)C : class 1
S=P(N1CC1)(N1CC1)N1CC1 : class 1
O=C(NCC1CN(c2ccc(N3CCOCC3=O)cc2)C(=O)O1)c1ccc(Cl)s1 (configuration not stated) : class 1
COC(=O)Nc1nc2ccc(S(=O)c3ccccc3)cc2[nH]1 (configuration not stated) : class 1
CC(C)C[C@H](NC(=O)[C@H](CCc1ccccc1)NC(=O)CN1CCOCC1)C(=O)N[C@@H](Cc1ccccc1)C(=O)N[C@@H](CC(C)C)C(=O)[C@@]1(C)CO1 : class 1
CCC(=O)O[C@]1(C(=O)SCF)[C@H](C)C[C@H]2[C@@H]3C[C@H](F)C4=CC(=O)C=C[C@]4(C)[C@@]3(F)[C@@H](O)C[C@@]21C : class 0
O=S(=O)(O)CCS : class 0

Query: Outcome? Cn1nnc2c(C(N)=O)ncn2c1=O
Reply: class 0

Query: Outcome? CCOC(=O)[C@H](CCc1ccccc1)N[C@H]1CS[C@H](c2cccs2)CN(CC(=O)O)C1=O
Reply: class 1

----------
METHOD DESCRIPTION: qHTS Assay for Identifying Gametocytocidal Compounds (AID 743244);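 note: % is set by controls: 0 for no effect and ±100 for the full control effect; actives lower the fluorescent signal which means gametocytes are killed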
REPORTED CONDITIONS: P. falciparum 3D7 stage III-V gametocytes, alamarBlue, 72 h; stronger effect = lower value
Inconclusive results are not listed. Calls of active or inactive are those of the source. Calls come from the whole dose curve; as a rule, active = well fitted curve in the direction sought with a large enough effect; inconclusive = small, poorly fitted or top-dose-only effect, or another doubt; inactive = no such curve, though single readings can be large or run the other way.
REPORTED PROPERTY: max response

See these solved cases before continuing.
NC(=O)N1c2ccccc2CC(=O)c2ccccc21 : 34.3% (inactive)
CC(C)Cn1cnc2c(N)nc3ccccc3c21 : -6.2% (inactive)
CN1CCN(c2c(F)cc3c(=O)c(C(=O)O)cn4c3c2OCN4C)CC1 : 0.61% (inactive)

Query: So what's the measured max response for this one? NS(=O)(=O)c1cc2c(cc1Cl)NC(C(Cl)Cl)NS2(=O)=O (stereo not given)
Reply: 6.12% (inactive)

Query: So what's the measured max response for this one? C[C@@H](CN1CC(=O)NC(=O)C1)N1CC(=O)NC(=O)C1
Reply: 9.49% (inactive)

Query: So what's the measured max response for this one? O=c1cc(O)c(Cl)c[nH]1
Reply: 10.3% (inactive)

Query: So what's the measured max response for this one? Cc1cccc(Nc2ccncc2S(=O)(=O)NC(=O)NC(C)C)c1
Reply: -10.6% (inactive)

Query: So what's the measured max response for this one? CCOC(=O)c1ccc(C#Cc2ccc3c(c2)C(C)(C)CCS3)nc1
Reply: 32% (inactive)

Query: So what's the measured max response for this one? NC(=O)c1ccc2[nH]ccc2c1
Reply: 11.4% (inactive)

Query: So what's the measured max response for this one? Cc1oc(=O)oc1CN1CCN(c2cc3c(cc2F)c(=O)c(C(=O)O)c2n3C(C)S2)CC1 (stereo not given)
Reply: 2.62% (inactive)

Query: So what's the measured max response for this one? NC(=O)c1cccnc1
Reply: 0.464% (inactive)
